biological target: HLA-A*03 (human); test: competition with 125I-labelled probe peptide for purified HLA, gel filtration
observation type: IC50
Answer format reminder: number followed by unit.

[
  {
    "binder": "GVWIRTPPAYR (modifications not checked) [peptide 26.0535 (HBV X NUC FUS 299, …)]",
    "measured value": "58 nM"
  },
  {
    "binder": "HTLWKAGILYK (modifications not checked) [peptide 1147.16 (HBV pol 149, …)]",
    "measured value": "20 nM"
  }
]

Now look at this one.
Which value of IC50 has been reported for RLVVDFSQFSR (modifications not checked) [peptide 26.0539 (HBV POL 376, …)] in the records?
39 nM
